Test system: normal HEK293 cells
assayText: B[a]P toxicity in normal HEK293 cells
Assay type: cell-based
assaySetup: Homo sapiens, HEK293, read-out: EC50 of B[a]P in normal HEK293 cells
quantityKind: pEC50
Note: pEC50 values are expressed as the negative base-10 logarithm of concentration in M.

Please look at this molecule and report its pEC50: c1ccc2c(c1)cc1ccc3cccc4ccc2c1c34 [B[a]P, benzo[a]pyrene, reference compound]
4.85

---

System: CYP2A6, CYP2B6, CYP2C8, CYP2C9, CYP2C18, CYP2C19, CYP2D6, CYP2E1, CYP3A4
assayText: CYP2 and CYP3 subfamily panel inhibition in Sacchrosomes
Assay type: biochemical
assaySetup: human, pH 7.4
quantityKind: IC50 at 15 min

Please give measured IC50 at 15 min of the following entry: COc1c(C(=O)C=Cc2cccnc2)c(O)c(OC)c2occc12 [3g]
> 20 µM

Find the measured IC50 at 15 min of COc1c(C(=O)C=Cc2ccsc2)c(O)c(OC)c2occc12 [3r] and report it.
> 20 µM
